protocol_details: soluble on expression in E. coli; label from the status in PepcDB or PDB records
experimental_endpoint: soluble on expression in E. coli

[
  {
    "sequence_entry": "MSLRDKQKIKTKLIPEKDEGEGKYRIGLYIRDSAAGIGTMTFYEPKTKKYGALGHVISDMDTKKPIVVENGEIVKSTVTSIEKGTGGNPGEKLARFSSERKTIGDINRNSPFGIFGTLHQPIQNNISDQALPVAFSTEVKKGPAEILTVIDDDKVEKFDIEIVSTTPQKFPATKGMVLKITDPRLLKETGGIVQGMSGSPIIQNGKVIGAVTHVFVNDPTSGYGVHIEWMLSEAGIDIYGKEKASEGHHHHHH",
    "soluble on expression in E. coli": "soluble"
  },
  {
    "sequence_entry": "MAYVTWLLAILHVHKDSFEIAAPSDSYLSAEPGQDVTLTCQLPRTWPVQQVIWEKVQPHQVDILASCNLSQETRYTSKYLRQTRSNCSQGSMKSILIIPNAMAADSGLYRCRSEAITGKNKSFVIRLIITDGE",
    "soluble on expression in E. coli": "not soluble"
  },
  {
    "sequence_entry": "MGSDKIHHHHHHMQNPFTLTFGRSPLESVDRPVQINEIIENFTADTINQQMFIITGVRGSGKTVMMTEISHRLRENDDWVVIELNPATELLPAMLSKLNSDNICAGLIKSAKLDLSFFGFGVSIEGTQPITDAETAIIKILERLKKSGKRLLITIDEMTNSEYMKVFAGAFQIFVRQELPVFLLGTGLYENIEELQNEKSLTFLYRAPKIQLKPLNNAAIINKYKTIFNISPEKAAQMAGLTKGYPFAFQVLGYLTWNNGGDYNGILGEYEQYLSEFVYDKIWSELSQKDRMVAKGIADVQSGKIKEIRDAIGMETNEFNPYRKRLIKKGIVSGEIRGYVYFTLPLFEEYVIENY",
    "soluble on expression in E. coli": "not soluble"
  },
  {
    "sequence_entry": "STSCVAEEPIKKIAIFGGTHGNELTGVFLVTHWLKNGAEVHRAGLEVKPFITNPRAVEKCTRYIDCDLNRVFDLENLSKEMSEDLPYEVRRAQEINHLFGPKNSDDAYDVVFDLHNTTSNMGCTLILGDSGNDFLIQMFHYIKTCMAPLPCSVYLIEHPSLKYATTRSIAKYPVGIEVGPQPHGVLRADILDQMRRMLKHALDFIQRFNEGKEFPPCAIDVYKIMEKVDYPRNESGDVAAVIHPNLQDQDWKPLHPGDPVFVSLDGKVIPLGGDCTVYPVFVNEAAYYEKKEAFAKTTKLTLNAKSIRSTLH",
    "soluble on expression in E. coli": "soluble"
  },
  {
    "sequence_entry": "MTKKVVVHQIVGHRFLGVNEQGDKVMIDGDQPSTGPRPMELLLMALGACTAYDVVDIMRKKKQPLARYRVEVEGERAETHPRRYTRITVTHIASGPGVTLEALERAVHLSHTKYCSVSATLNAEITTRVVLEPWEGEEGEG",
    "soluble on expression in E. coli": "soluble"
  }
]

Kindly consider the entry below.
Which soluble on expression in E. coli is listed for MGSDKIHHHHHHMKSYLTPLALLVSSVFSTVAYAETQLFVTTSSTQDAPLHIVYPTGIRIGQAVQDGLQQLPLYNKTNNKEVMPIYWLGAALVDLENTAVLETKRQQVLSQLAQMGEATNDSRYITKLAQLAQFLRGIKLGQRVMQPLDIDAIRITESYNAIIEGKYQLVLPPRPSTITLVGAVTQTGNMPWQSQTSSKDYLKQAGLLENAETSFVWIIQPDGNAIRQPIAYWNYQAQDIAPGATLFVEFSSLFDGYANLNENIIELLKNRTL ?
not soluble
